EXPERIMENTAL_PROTOCOL: Cytotoxicity against human HuH7 cells after 3 days
Assay type: cell-based, Huh-7
PROPERTY: CC50 at 72 h

# count of solved cases: 4
MOLECULE	CC50 at 72 h
COC(=O)[C@H](C)NP(=O)(N[C@@H](C)C(=O)OC)OC[C@H]1O[C@@H](n2cnc3c(OC)nc(N)nc32)[C@](C)(O)[C@@H]1O (mixture of isomers)	> 100 µM
COc1nc(N)nc2c1ncn2[C@@H]1O[C@H](COP(=O)(N[C@@H](C)C(=O)OC2CCCCC2)N[C@@H](C)C(=O)OC2CCCCC2)[C@@H](O)[C@@]1(C)O (mixture of isomers)	> 100 µM
COc1nc(N)nc2c1ncn2[C@@H]1O[C@H](COP(=O)(Nc2ccccc2)N[C@@H](C)C(=O)OCC(C)(C)C)[C@@H](O)[C@@]1(C)O (mixture of isomers)	> 100 µM
COc1nc(N)nc2c1ncn2[C@@H]1O[C@H](COP(=O)(N[C@@H](C)C(=O)OC2Cc3ccccc3C2)N[C@@H](C)C(=O)OC2Cc3ccccc3C2)[C@@H](O)[C@@]1(C)O (mixture of isomers)	70 µM

Now turn to the next molecule.
Input: Please give the measured CC50 at 72 h for this molecule: CCN(CC)P(=O)(N[C@@H](C)C(=O)OCC(C)(C)C)OC[C@H]1O[C@@H](n2cnc3c(OC)nc(N)nc32)[C@](C)(O)[C@@H]1O (mixture of isomers)
Output: > 100 µM
